Hello, the source for this data is ChEMBL document CHEMBL1128106, in case you need it.

Assay: Half life (t) of enzymatic phosphodiester hydrolysis of compound towards calf spleen (CS-PDE) at a concentration of 20 microg
Type: ADME, Bos taurus
Settings: cattle, calf spleen phosphodiesterase (CS-PDE)
Parameter: half-life

Exam item: Quick check: half-life of Nc1nc2c(ccn2[C@H]2C[C@H](OP(=O)(O)OC[C@H]3O[C@@H](n4ccc5c(=O)[nH]c(N)nc54)C[C@@H]3OP(=O)(O)OC[C@H]3O[C@@H](n4ccc5c(=O)[nH]c(N)nc54)C[C@@H]3OP(=O)(O)OC[C@H]3O[C@@H](n4ccc5c(=O)[nH]c(N)nc54)C[C@@H]3OP(=O)(O)OC[C@H]3O[C@@H](n4ccc5c(=O)[nH]c(N)nc54)C[C@@H]3OP(=O)(O)OC[C@H]3O[C@@H](n4cnc5c(=O)[nH]c(N)nc54)C[C@@H]3O)[C@@H](COP(=O)(O)O)O2)c(=O)[nH]1 ?
Marked response: > 20 h

Exam item: Next: Nc1nc2c(ncn2[C@H]2C[C@H](O)[C@@H](COP(=O)(O)O[C@H]3C[C@H](n4cc(I)c5c(=O)[nH]c(N)nc54)O[C@@H]3COP(=O)(O)O[C@H]3C[C@H](n4cc(I)c5c(=O)[nH]c(N)nc54)O[C@@H]3COP(=O)(O)O[C@H]3C[C@H](n4cc(I)c5c(=O)[nH]c(N)nc54)O[C@@H]3COP(=O)(O)O[C@H]3C[C@H](n4cc(I)c5c(=O)[nH]c(N)nc54)O[C@@H]3COP(=O)(O)O[C@H]3C[C@H](n4cc(I)c5c(=O)[nH]c(N)nc54)O[C@@H]3COP(=O)(O)O)O2)c(=O)[nH]1
Marked response: > 20 h

###

Exercise: state measured half-life for each of the compounds provided.
Experiment: Half life (t) of enzymatic phosphodiester hydrolysis of compound towards snake venom (SV-PDE) at a concentration of 4 microg
Assay type: ADME
Conditions: serpentes, snake venom phosphodiesterase (SV-PDE)
Quick note: give the figure in min, leave out the unit.

Exam item: For Nc1nc2c(ncn2[C@H]2C[C@H](O)[C@@H](COP(=O)(O)O[C@H]3C[C@H](n4cc(I)c5c(=O)[nH]c(N)nc54)O[C@@H]3COP(=O)(O)O[C@H]3C[C@H](n4cc(I)c5c(=O)[nH]c(N)nc54)O[C@@H]3COP(=O)(O)O[C@H]3C[C@H](n4cc(I)c5c(=O)[nH]c(N)nc54)O[C@@H]3COP(=O)(O)O[C@H]3C[C@H](n4cc(I)c5c(=O)[nH]c(N)nc54)O[C@@H]3COP(=O)(O)O[C@H]3C[C@H](n4cc(I)c5c(=O)[nH]c(N)nc54)O[C@@H]3COP(=O)(O)O)O2)c(=O)[nH]1 , what is its reported half-life?
Marked response: 26

Exam item: Further, for Nc1nc2c(ccn2[C@H]2C[C@H](OP(=O)(O)OC[C@H]3O[C@@H](n4ccc5c(=O)[nH]c(N)nc54)C[C@@H]3OP(=O)(O)OC[C@H]3O[C@@H](n4ccc5c(=O)[nH]c(N)nc54)C[C@@H]3OP(=O)(O)OC[C@H]3O[C@@H](n4ccc5c(=O)[nH]c(N)nc54)C[C@@H]3OP(=O)(O)OC[C@H]3O[C@@H](n4ccc5c(=O)[nH]c(N)nc54)C[C@@H]3OP(=O)(O)OC[C@H]3O[C@@H](n4cnc5c(=O)[nH]c(N)nc54)C[C@@H]3O)[C@@H](COP(=O)(O)O)O2)c(=O)[nH]1 ?
Marked response: 2.5
